# assayed.system: cynomolgus IL-36R on BaF/3 cells (cynomolgus)
# experimental.protocol: cell-based or functional assay
readout.label: IC90 pNFκB, trun-IL-36a, BaF/3 cynomolgus IL-36R cells

Which IC90 pNFκB, trun-IL-36a, BaF/3 cynomolgus IL-36R cells value is on record for antibody 89A12 (antibody, V domains shown) VH: EVQLQQSGAELVRPGASVRLSCTASGFNIKDDYIHWVRQRPKQGLEWLGRIDPANGNTKYDPRFQDKATITADTSSNTAYLHLSSLTSEDTAVYYCAKSFPDNYYSYDDAFAYWGQGTLVTVSA VL: DIQMTQSPASQSASLGESVTFSCLASQTIGTWLGWYQQKPGKSPQLLIYRATSLADGVPSRFSGSGSGTNFSFKISSLQAEDLASYYCQQLYSGPYTFGGGTKLEIR ?
> 4 µM

Sourced from patent US20240409648A1
